For each record, write down the corresponding pIC50.
- assay.target: HLA A*3201 (Homo sapiens, UniProt P04439, A270S/D101S/D185E/E176V/E277Q/F133L/G103R/G107R/G231S/H175R/I121M/I218V/I322F/K168Q/L105A/L300P/L318F/M331R/P208A/P217A/Q94H/R106L/R138Q/S129P/T104I/T323A/T345S/V100E/V321M/V358M)
- assay: biochemical
Where a SMILES comes first, the peptide text is derived from it.
Lab note: report pIC50 as minus log10 of the concentration in molar units, number only.

Supply pIC50 value. Item: CC(C)C[C@H](N)C(=O)N[C@H](C(=O)N[C@@H](Cc1ccccc1)C(=O)N[C@@H](CC(=O)O)C(=O)N[C@@H](Cc1ccc(O)cc1)C(=O)N[C@H](C(=O)N[C@H](C(=O)N[C@H](C(=O)N[C@@H](Cc1ccccc1)C(=O)O)[C@@H](C)O)C(C)C)C(C)C)[C@@H](C)O [3102.0931] (H-LTFDYVVTF-OH)
7.77

Tell me pIC50 reported for CC[C@H](C)[C@H](NC(=O)[C@@H](N)C(C)C)C(=O)N[C@@H](CC(N)=O)C(=O)N[C@@H](Cc1ccc(O)cc1)C(=O)N[C@@H](Cc1ccccc1)C(=O)N[C@@H](CC(N)=O)C(=O)N[C@@H](CCCNC(=N)N)C(=O)N[C@@H](CCSC)C(=O)N[C@@H](Cc1ccccc1)C(=O)O [3102.0412] (H-VINYFNRMF-OH)
8.37

Return value of pIC50 for input CC[C@H](C)[C@H](NC(=O)[C@H](CO)NC(=O)[C@H](CCCCN)NC(=O)[C@H](Cc1ccccc1)NC(=O)[C@H](CC(C)C)NC(=O)[C@@H](NC(=O)[C@@H](N)CCSC)[C@@H](C)O)C(=O)N[C@@H](CC(C)C)C(=O)N[C@@H](Cc1ccccc1)C(=O)O [3102.0443] (H-MTLFKSILF-OH) , no commentary.
7.96

* * *

- assay.target: HLA B*5802 (Homo sapiens, UniProt P01889, A329T/C349S/D201E/D98Y/E176V/E187L/E204Q/E69T/G107R/I218V/I90N/K202T/L105A/N104I/N87E/Q89R/Q94S/R106L/R155S/R180L/R86G/S101N/S121W/S35A/S48A/V127L/V306I/V36M/Y140S/Y91M)
- Assay type: binding
experimental.readout: Normalized average relative binding affinity(ARB)
API doc: respond with a numeric literal and nothing else, no unit.

Item XXXXXXXCX [3064.0142] : provide Normalized average relative binding affinity(ARB)
0.21

Give me measured Normalized average relative binding affinity(ARB), please, for this sequence: XXXXXGXXX [3064.0106]
0.16

Indicate the recorded Normalized average relative binding affinity(ARB) value for this sequence: XXXXCXXXX [3064.0082]
0.53

Give the measured Normalized average relative binding affinity(ARB) for XXXPXXXXX [3064.0073]
0.50

Provide one value: measured Normalized average relative binding affinity(ARB) of XXXVXXXXX [3064.0078]
0.53

Please report the measured Normalized average relative binding affinity(ARB) for XXXXRXXXX [3064.0095]
0.20

Look up Normalized average relative binding affinity(ARB) of XXXXXFXXX [3064.0105] and report it.
0.36

Fill in reported Normalized average relative binding affinity(ARB) for this entry: XXXXXXXPX [3064.0153]
0.16

Could you please provide reported Normalized average relative binding affinity(ARB) for XXXXXKXXX [3064.0109] ? Thanks!
0.21

Output Normalized average relative binding affinity(ARB) of XXXYXXXXX [3064.0080]
0.49

Tell me its Normalized average relative binding affinity(ARB) given XXXKXXXXX [3064.0069] as the entry.
0.55

Indicate the recorded Normalized average relative binding affinity(ARB) value for this sequence: XXXQXXXXX [3064.0074]
0.31

Give Normalized average relative binding affinity(ARB) for the following sequence: XXXXFXXXX [3064.0085]
0.089

Look up Normalized average relative binding affinity(ARB) of XXXXXRXXX [3064.0115] and report it.
0.36

State, in one line, measured Normalized average relative binding affinity(ARB) of XXXFXXXXX [3064.0065]
0.45

Please give measured Normalized average relative binding affinity(ARB) of the following entry: XXXXXXXVX [3064.0158]
0.26

In one line, give reported Normalized average relative binding affinity(ARB) of the entry XXXXXLXXX [3064.0110] .
0.31

Query Normalized average relative binding affinity(ARB) for XXXXXXGXX [3064.0126]
0.024

Look up and state reported Normalized average relative binding affinity(ARB) for XXXXXXMXX [3064.0131]
0.35

# return recorded Normalized average relative binding affinity(ARB) for input XXXXXXXAX [3064.0141]
0.31

Answer with reported Normalized average relative binding affinity(ARB) of XXXHXXXXX [3064.0067]
0.32

Specify Normalized average relative binding affinity(ARB) for XXXXXXXTX [3064.0157] and stop.
0.66

Output Normalized average relative binding affinity(ARB) of XXXXQXXXX [3064.0094]
0.063

Return the recorded Normalized average relative binding affinity(ARB) value; entry: XXXXXXXFX [3064.0145]
0.33

Please report Normalized average relative binding affinity(ARB) for the following sequence: XXXLXXXXX [3064.0070]
0.50

Please look at this sequence and report its Normalized average relative binding affinity(ARB): XXXXXXXRX [3064.0155]
0.37

Supply reported Normalized average relative binding affinity(ARB) belonging to this sequence: XXXXXXRXX [3064.0135]
0.21

Quick one: give measured Normalized average relative binding affinity(ARB) for XXXXXXXLX [3064.0150]
0.57

Give reported Normalized average relative binding affinity(ARB) value for XXXXXCXXX [3064.0102]
0.38

State its Normalized average relative binding affinity(ARB) for this sequence: XXXXXQXXX [3064.0114]
0.46

Give recorded Normalized average relative binding affinity(ARB). XXXXXXXSX [3064.0156]
0.30

Input XXXXXXFXX [3064.0125] , output reported Normalized average relative binding affinity(ARB).
0.084

Please list Normalized average relative binding affinity(ARB) recorded for the sequence XXXXPXXXX [3064.0093]
0.075

Consider the sequence XXXXYXXXX [3064.0100] . State its measured Normalized average relative binding affinity(ARB).
0.62

Give recorded Normalized average relative binding affinity(ARB). XXXXAXXXX [3064.0081]
0.56

Please give the documented Normalized average relative binding affinity(ARB) of XXXRXXXXX [3064.0075]
0.96

Return reported Normalized average relative binding affinity(ARB). Input sequence: XXXXXXXWX [3064.0159]
0.16

Answer with reported Normalized average relative binding affinity(ARB) of XXXXXXHXX [3064.0127]
0.089

Give reported Normalized average relative binding affinity(ARB) value for XXXXXXXMX [3064.0151]
0.32

Report measured Normalized average relative binding affinity(ARB); entry is XXXXXVXXX [3064.0118]
0.26

Determine its reported Normalized average relative binding affinity(ARB): XXXXXTXXX [3064.0117]
0.17

For XXXXLXXXX [3064.0090] , write its Normalized average relative binding affinity(ARB).
0.063

Given XXXXXXTXX [3064.0137] , respond with its Normalized average relative binding affinity(ARB).
0.057

Indicate the recorded Normalized average relative binding affinity(ARB) value for this sequence: XXXXXXXGX [3064.0146]
0.87

Supply reported Normalized average relative binding affinity(ARB) belonging to this sequence: XXXNXXXXX [3064.0072]
0.55

Let me know recorded Normalized average relative binding affinity(ARB) for XXXXXHXXX [3064.0107] , thanks.
0.27

Check the records and state Normalized average relative binding affinity(ARB) for XXXXXMXXX [3064.0111]
0.24

Provide one value: measured Normalized average relative binding affinity(ARB) of XXXXHXXXX [3064.0087]
0.74

Determine its reported Normalized average relative binding affinity(ARB): XXXXXXXHX [3064.0147]
0.26

Hello, please tell me recorded Normalized average relative binding affinity(ARB) for this one: XXXXXXPXX [3064.0133]
1.0

Provide Normalized average relative binding affinity(ARB) value for the following sequence: XXXXKXXXX [3064.0089]
0.58

Supply reported Normalized average relative binding affinity(ARB) belonging to this sequence: XXXXXXXEX [3064.0144]
0.30

For the sequence XXXXXXXKX [3064.0149] , give its measured Normalized average relative binding affinity(ARB) value.
0.15

Supply reported Normalized average relative binding affinity(ARB) belonging to this sequence: XXXSXXXXX [3064.0076]
1.0

Supply measured Normalized average relative binding affinity(ARB) of XXXXXEXXX [3064.0104] in your reply.
0.14

Look up and state reported Normalized average relative binding affinity(ARB) for XXXXXAXXX [3064.0101]
0.91

Fill in Normalized average relative binding affinity(ARB) for record XXXXXSXXX [3064.0116]
0.055

Give the value of Normalized average relative binding affinity(ARB) reported for the following: XXXXXXXNX [3064.0152]
0.27

Given XXXXXXXYX [3064.0160] , respond with its Normalized average relative binding affinity(ARB).
1.0

Let me know recorded Normalized average relative binding affinity(ARB) for XXXXXNXXX [3064.0112] , thanks.
1.0

Give me measured Normalized average relative binding affinity(ARB), please, for this sequence: XXXXXXVXX [3064.0138]
0.073

Please look at this sequence and report its Normalized average relative binding affinity(ARB): XXXXXXXQX [3064.0154]
0.30

Entry XXXXSXXXX [3064.0096] needs its Normalized average relative binding affinity(ARB) filled in; supply it.
0.063

Give recorded Normalized average relative binding affinity(ARB). XXXXXXYXX [3064.0140]
0.069

Give Normalized average relative binding affinity(ARB) for XXXXGXXXX [3064.0086]
0.37

Identify measured Normalized average relative binding affinity(ARB) associated with XXXXXXLXX [3064.0130]
0.014
